Provenance of the data: ChEMBL document CHEMBL4418304

Target: Hydroxyproline dehydrogenase (Homo sapiens)
Sequence (Q9UF12 whole entry): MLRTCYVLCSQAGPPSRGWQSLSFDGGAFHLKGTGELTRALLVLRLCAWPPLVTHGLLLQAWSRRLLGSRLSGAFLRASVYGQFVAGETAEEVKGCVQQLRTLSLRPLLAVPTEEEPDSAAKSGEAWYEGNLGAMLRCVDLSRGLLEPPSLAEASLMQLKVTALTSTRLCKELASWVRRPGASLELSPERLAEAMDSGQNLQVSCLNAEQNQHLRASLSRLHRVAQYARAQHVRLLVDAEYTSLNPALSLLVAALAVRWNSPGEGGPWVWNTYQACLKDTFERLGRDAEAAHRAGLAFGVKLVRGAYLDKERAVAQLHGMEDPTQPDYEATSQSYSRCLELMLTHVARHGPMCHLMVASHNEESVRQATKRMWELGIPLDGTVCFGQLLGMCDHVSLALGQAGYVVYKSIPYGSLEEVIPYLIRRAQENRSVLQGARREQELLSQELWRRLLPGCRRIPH
Assay: Inhibition of recombinant human HYPDH expressed in Escherichia coli using hydroxyproline as substrate preincubated for 5 mins followed by substrate addition in presence of FAD as cofactor
Settings: read-out: IC50
reported-endpoint: IC50 (µM)

> print(dat)
                             compound                       experimental.target  reported.endpoint  data.value
 1           O=C(O)[C@@H]1CC(O)(O)CS1  Hydroxyproline dehydrogenase (Homo sapiens)               IC50         290
 2  O=C(O)C1CCCO1 (centres undefined)  Hydroxyproline dehydrogenase (Homo sapiens)               IC50        1500
 3           N[C@H]1CC[C@H](C(=O)O)C1  Hydroxyproline dehydrogenase (Homo sapiens)               IC50         630
 4           O=C(O)[C@H]1CC[C@H](O)C1  Hydroxyproline dehydrogenase (Homo sapiens)               IC50         600
 5             O=C1CC[C@@H](C(=O)O)C1  Hydroxyproline dehydrogenase (Homo sapiens)               IC50         370
 6          O=C(O)[C@@H]1C[C@H](O)CS1  Hydroxyproline dehydrogenase (Homo sapiens)               IC50         370
 7                 O=C(O)C1=NN=C(O)C1  Hydroxyproline dehydrogenase (Homo sapiens)               IC50        2900
 8         O=C(O)[C@@H]1C[C@@H](O)CS1  Hydroxyproline dehydrogenase (Homo sapiens)               IC50         330
 9              O=C1CC[C@H](C(=O)O)C1  Hydroxyproline dehydrogenase (Homo sapiens)               IC50         380
10         O=C(O)[C@@H]1CC[C@@H](O)C1  Hydroxyproline dehydrogenase (Homo sapiens)               IC50        2100

(1) O=C(O)C[C@H]1CC[C@H](O)C1
(2) O=C1CS[C@H](C(=O)O)C1
Task: Endpoint returns whichever of 1 and 2 has the numerically higher IC50. Kindly give the label for the entry you pick.
Output: 1
